test system: HTT mRNA; assay: RT-qPCR splicing assay, HTT mRNA canonical (CJ) and alternative (AJ) junction; format: cell-based, human; details: Homo sapiens, HTT canonical junction mRNA, RT-qPCR; read-out: HTT CJ (decrease in CJ mRNA levels, IC50)
Let's look at some compounds and their measured IC50.
MEASUREMENT_TYPE: IC50

> print(dat)
                                    compound  measurement.type       result
 1  CNC(=O)c1nc(-c2cc3cn(C)nc3c(C)c2O)nc2ccc(N3CCC(N(C)C)CC3)cc12 [Compound 507]              IC50  0.1 to 1 µM
 2  Cc1nc2c(F)c(O)c(-c3ccc4nc(N5CC[C@@H](NCC6CC6)C5)ccc4n3)cc2o1 (single isomer, unassigned) [Compound 323]              IC50     < 0.1 µM
 3  Cc1c(O)c(-c2ccc3nc(N4CC[C@H](NC(C)C)C4)ccc3n2)cc2cn(C)nc12 [Compound 320]              IC50     < 0.1 µM
 4  Cn1cc2cc(-c3ccc4nc(N5CCC(NCC6CC6)C5)ccc4n3)c(O)c(F)c2n1 (stereo not drawn) [Compound 387]              IC50     < 0.1 µM
 5  C[C@@H]1CN(c2ccc3nc(-c4cc5cn(C)nc5c(F)c4O)ncc3c2)C[C@H](C)N1 [Compound 743]              IC50      > 10 µM
 6  Cn1cc2cc(-c3cc4ccc(C5CCNCC5)nc4cn3)c(O)cc2n1 [Compound 104]              IC50   1 to 10 µM
 7  Cn1cc2cc(-c3ccc4nc(N5CCC(NC6(CF)CC6)C5)ccc4n3)c(O)c(F)c2n1 (stereo in doubt) [Compound 353]              IC50     < 0.1 µM
 8  Cn1cc2cc(-c3ncc4nc(C5CCNCC5)ccc4n3)c(O)c(C#N)c2n1 [Compound 403, trifluoroacetic acid]              IC50  0.1 to 1 µM
 9  Cc1nc2c(F)c(O)c(-c3ccc4nc(N5CC[C@H](NC(C)C)C5)ccc4n3)cc2o1 (single isomer, unassigned) [Compound 330]              IC50     < 0.1 µM
10  CNC(=O)c1nc(-c2cc3cn(C)nc3cc2O)nc2ccc(N3C[C@@H](C)N[C@H](C)C3)cc12 (single isomer, unassigned) [Compound 677]              IC50  0.1 to 1 µM
11  Cc1nc2c(F)c(O)c(-c3ccc4nc(N5CCC(NC6(C)CC6)C5)ccc4n3)cc2o1 (stereo not drawn) [Compound 325]              IC50     < 0.1 µM
12  Cn1cc2cc(-c3ccc4nc(N5CC[C@H](N[C@H]6C[C@@H](F)C6)C5)ccc4n3)c(O)cc2n1 [Compound 299]              IC50     < 0.1 µM
13  Cc1c(O)c(-c2ccc3nc(N4CCC(NC5COC5)C4)ccc3n2)cc2cn(C)nc12 (stereo not drawn) [Compound 302]              IC50  0.1 to 1 µM
14  Cn1cc2c(O)c(-c3ncc4nc(C5CCNCC5)ccc4n3)ccc2n1 [Compound 108]              IC50   1 to 10 µM
15  Cc1nc2cc(O)c(-c3ccc4nc(N5CC[C@@H](NC(C)(C)C)C5)ncc4n3)cc2o1 [Compound 413]              IC50     < 0.1 µM
